Listed here: items and their measured inhibition.
System Tested: Casein kinase I isoform gamma-3 (Homo sapiens);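 further: reported value is the mean percent inhibition of the kinase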
Study Conditions: at 0.1 µM
Test Readout: inhibition (%)

N#Cc1c(NC(=O)c2cccc3ccccc23)sc2c1CCCC2    2.06
O=C1NC(=O)C(c2ccc(Cl)cc2)=C1Nc1ccc(Cl)c(C(=O)O)c1    -0.68
COc1ccc(-c2nn3ncccc3c2-c2ccnc(Nc3ccc(Cl)c(C(F)(F)F)c3)n2)cc1    2.03
CCn1c(-c2nonc2N)nc2cnc(Oc3cccc(NC(=O)c4ccc(OCCN5CCOCC5)cc4)c3)cc21    1.57
NCc1ccc(-c2nc(-c3ccc(Cl)c(O)c3)c(-c3ccncc3)[nH]2)cc1    0.3
O=C1Nc2ccc(C(=O)c3ccco3)cc2C1=Cc1cc(Cl)c(O)c(Cl)c1    1.18
COc1ccc(-c2ccncc2)cc1C(N)=O    3.17
COc1cc(C)c(NC(=O)CN(C)C)cc1Nc1nc(Nc2cccc(F)c2C(N)=O)c2cc[nH]c2n1    1.69
NC(=O)c1cccc(Nc2nccc(Nc3cccc4[nH]ncc34)n2)c1    -2.55
CCn1c(-c2nonc2N)nc2ccncc21    -0.09

====

System Tested: Serine/threonine-protein kinase MRCK alpha (Homo sapiens) (UniProt Q5VT25);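 further: each value is an averaged percent inhibition of MRCK alpha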
Sequence (Q5VT25 whole entry): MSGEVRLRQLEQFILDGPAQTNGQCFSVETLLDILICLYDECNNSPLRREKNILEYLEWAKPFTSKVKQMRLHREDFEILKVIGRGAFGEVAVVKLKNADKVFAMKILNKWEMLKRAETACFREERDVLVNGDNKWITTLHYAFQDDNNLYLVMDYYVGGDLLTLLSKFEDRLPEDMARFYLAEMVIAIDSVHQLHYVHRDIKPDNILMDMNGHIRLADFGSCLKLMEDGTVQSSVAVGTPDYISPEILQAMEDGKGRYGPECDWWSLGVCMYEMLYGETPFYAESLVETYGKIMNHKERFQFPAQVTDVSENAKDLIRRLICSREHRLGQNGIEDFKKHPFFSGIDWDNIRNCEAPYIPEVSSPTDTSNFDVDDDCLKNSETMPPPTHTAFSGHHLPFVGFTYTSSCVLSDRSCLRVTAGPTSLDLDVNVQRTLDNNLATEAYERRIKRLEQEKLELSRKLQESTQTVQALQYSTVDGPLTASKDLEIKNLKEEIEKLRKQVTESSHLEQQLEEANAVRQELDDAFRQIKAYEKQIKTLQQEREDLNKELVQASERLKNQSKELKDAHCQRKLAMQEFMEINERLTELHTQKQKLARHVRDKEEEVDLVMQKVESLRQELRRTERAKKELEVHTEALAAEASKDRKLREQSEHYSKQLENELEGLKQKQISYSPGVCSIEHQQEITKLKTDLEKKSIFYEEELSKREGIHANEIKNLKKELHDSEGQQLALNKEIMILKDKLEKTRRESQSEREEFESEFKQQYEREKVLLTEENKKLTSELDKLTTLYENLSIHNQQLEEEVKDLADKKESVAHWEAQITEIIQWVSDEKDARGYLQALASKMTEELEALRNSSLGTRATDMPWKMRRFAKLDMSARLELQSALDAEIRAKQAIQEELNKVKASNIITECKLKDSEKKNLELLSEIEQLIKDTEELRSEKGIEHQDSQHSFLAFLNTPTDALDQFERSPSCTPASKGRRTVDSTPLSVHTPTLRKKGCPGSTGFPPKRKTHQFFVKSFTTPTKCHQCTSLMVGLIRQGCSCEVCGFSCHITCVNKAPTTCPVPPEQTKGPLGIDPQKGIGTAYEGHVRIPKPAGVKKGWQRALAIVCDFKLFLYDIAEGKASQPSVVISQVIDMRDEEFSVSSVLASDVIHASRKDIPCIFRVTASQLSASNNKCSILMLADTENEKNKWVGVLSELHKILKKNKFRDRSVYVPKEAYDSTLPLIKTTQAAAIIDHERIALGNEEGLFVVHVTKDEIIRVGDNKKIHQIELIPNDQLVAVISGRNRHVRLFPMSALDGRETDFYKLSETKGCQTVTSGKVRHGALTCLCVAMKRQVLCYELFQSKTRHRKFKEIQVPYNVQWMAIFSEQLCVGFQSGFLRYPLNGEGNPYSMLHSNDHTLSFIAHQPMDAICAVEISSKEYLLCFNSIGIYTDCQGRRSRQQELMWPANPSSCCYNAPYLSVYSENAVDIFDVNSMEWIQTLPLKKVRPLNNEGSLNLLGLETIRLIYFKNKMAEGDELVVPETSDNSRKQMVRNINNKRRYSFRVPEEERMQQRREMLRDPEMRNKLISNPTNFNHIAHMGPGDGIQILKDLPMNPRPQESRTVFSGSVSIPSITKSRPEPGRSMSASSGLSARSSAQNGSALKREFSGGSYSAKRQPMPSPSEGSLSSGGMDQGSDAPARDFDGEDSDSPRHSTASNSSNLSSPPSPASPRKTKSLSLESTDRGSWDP
Study Conditions: at 1 µM
Listed here: items and their measured inhibition.
Test Readout: inhibition (%)

CS(=O)(=O)CCNCc1ccc(-c2ccc3ncnc(Nc4ccc(OCc5ccccc5)c(Cl)c4)c3c2)o1    -1.47
COc1cc2ncn(-c3cc(O[C@@H](C)c4ccccc4Cl)c(C(N)=O)s3)c2cc1OC    0.91
CC1=C(C(=O)Nc2ccc3[nH]ncc3c2)C(c2ccc(F)cc2)NC(=O)N1 (centres undefined)    12.4
CCN1CCC(CC(=O)Nc2n[nH]c3nc(-c4cccs4)c(Br)cc23)CC1    -0.59
NCc1ccc(-c2nc(-c3ccc(Cl)c(O)c3)c(-c3ccncc3)[nH]2)cc1    -0.06
CCn1c(-c2nonc2N)nc2cnc(Oc3cccc(NC(=O)c4ccc(OCCN5CCOCC5)cc4)c3)cc21    42.3
CCCN1CCC(Oc2cc(Nc3nc(Nc4cccc(F)c4C(N)=O)c4cc[nH]c4n3)c(OC)cc2Cl)CC1    -1.24
COc1cc(C)c(NC(=O)CN(C)C)cc1Nc1nc(Nc2cccc(F)c2C(N)=O)c2cc[nH]c2n1    2.53
O=C1NC(=O)C(c2ccccc2Cl)=C1Nc1cccc(O)c1    -0.35

====

Listed here: items and their measured inhibition.
System Tested: Fibroblast growth factor receptor 2 (Homo sapiens) (UniProt P21802);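 further: reported figure is a mean percent inhibition of FGFR2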
Sequence (P21802 22-821 limits assumed): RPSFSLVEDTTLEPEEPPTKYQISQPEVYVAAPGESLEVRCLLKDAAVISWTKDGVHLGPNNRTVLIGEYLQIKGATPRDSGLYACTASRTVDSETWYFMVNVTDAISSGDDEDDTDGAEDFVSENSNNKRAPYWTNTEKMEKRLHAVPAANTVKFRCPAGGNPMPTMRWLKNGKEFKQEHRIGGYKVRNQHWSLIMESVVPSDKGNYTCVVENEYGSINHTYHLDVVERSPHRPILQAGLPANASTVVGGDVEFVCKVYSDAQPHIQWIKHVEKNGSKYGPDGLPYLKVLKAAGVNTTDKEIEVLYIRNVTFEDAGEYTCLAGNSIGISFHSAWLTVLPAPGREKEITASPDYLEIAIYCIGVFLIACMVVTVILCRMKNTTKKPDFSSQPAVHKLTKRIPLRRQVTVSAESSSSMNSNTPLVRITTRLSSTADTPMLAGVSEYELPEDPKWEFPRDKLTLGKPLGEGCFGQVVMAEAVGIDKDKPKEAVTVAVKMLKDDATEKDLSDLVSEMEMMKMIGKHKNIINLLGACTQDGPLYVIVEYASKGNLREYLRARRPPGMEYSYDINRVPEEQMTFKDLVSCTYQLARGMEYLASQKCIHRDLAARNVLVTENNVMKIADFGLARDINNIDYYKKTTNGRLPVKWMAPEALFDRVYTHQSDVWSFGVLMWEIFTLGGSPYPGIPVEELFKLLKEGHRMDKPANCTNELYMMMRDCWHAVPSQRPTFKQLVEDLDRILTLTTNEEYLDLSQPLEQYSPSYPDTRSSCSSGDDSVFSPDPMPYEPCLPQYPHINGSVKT
Study Conditions: at 1 µM
Test Readout: inhibition (%)

COc1ccccc1Nc1ncc(-c2ccccc2)o1    13.7
COc1cc2ncn(-c3cc(OCc4ccccc4C(F)(F)F)c(C(N)=O)s3)c2cc1OC    20.9
CCn1c(-c2nonc2N)nc2c(C#CC(C)(C)O)nc(CN3CCCC3)cc21    0.42
CCn1c(-c2nonc2N)nc2c(N3CCCC3)nccc21    -1.03
O=C1NC(=O)C(c2cccc(Cl)c2)=C1Nc1ccc(O)c(Cl)c1    32.5
COc1cc2ncn(-c3cc(O[C@H](C)c4ccccc4Cl)c(C(N)=O)s3)c2cc1OC    44.9
[O-][S+]1CCN(Cc2ccc(-c3ccc4ncnc(Nc5ccc(OCc6ccccc6)c(F)c5)c4c3)o2)CC1    3.9
COc1ccc(-c2coc3ncnc(N)c23)cc1    10.1
CCc1cccc(NC(=O)Nc2ccc(Oc3ccc4nc(NC(=O)OC)[nH]c4c3)cc2)c1    8.89
NS(=O)(=O)c1ccc(N/N=C2\C(=O)Nc3ccc(C(=O)NCCc4c[nH]cn4)cc32)cc1    11.5
CCn1c(-c2nonc2N)nc2cnc(Oc3cccc(NC(=O)c4ccc(OCCN5CCOCC5)cc4)c3)cc21    3.45
CC1=C(C(=O)Nc2ccc3[nH]ncc3c2)C(c2ccc(F)cc2)NC(=O)N1 (stereo unspecified)    18.4
NC(=O)c1cccc(Nc2nccc(Nc3cccc4[nH]ncc34)n2)c1    13.1
NS(=O)(=O)c1cccc(-c2ccc3c(NC(=O)C4CC4)n[nH]c3c2)c1    -1.15
COc1ccc(-c2nn3ncccc3c2-c2ccnc(Nc3ccc(Cl)c(C(F)(F)F)c3)n2)cc1    2.97
Cc1nnc(-c2ccc(C)c(-c3ccc(C(=O)Nc4cccc(C#N)c4)cc3)c2)o1    4.97
CC(=O)Nc1cccc(C#Cc2cncnc2Nc2ccc(OCc3cccc(F)c3)c(Cl)c2)n1    0.03
CCn1c(-c2nonc2N)nc2ccncc21    4.73
Fc1cccc(COc2ccc(Nc3ncnc4sc(-c5cccs5)cc34)cc2Cl)c1    3.32
CNC(=O)c1cncc(/C=C/c2c(Cl)cccc2Cl)c1    7.15
CS(=O)(=O)CCNCc1ccc(-c2ccc3ncnc(Nc4ccc(OCc5ccccc5)c(Cl)c4)c3c2)o1    5.46
